- measurement.protocol: Biodistribution in rats
- Assay type: in vivo, male Sprague-Dawley rats
- condition.set: rat, iv, 30 min p.i., mean ± SD, n = 4
attribute.measured: brain uptake (%ID/g)
Quick reminder: number only, in %ID/g, skip the unit.

Consider the compound shown here: Cn1cc(-c2ccncc2)c(-c2ccc(OCc3cc(C[18F])c4ccccc4n3)cc2)n1 [[^18F]18b] What is its recorded brain uptake?
0.094

Item under review: Cn1cc(-c2ccncc2)c(-c2ccc(OCc3nc4ccccc4cc3OCC[18F])cc2)n1 [[^18F]20a] . Reported brain uptake?
0.129

What value of measured brain uptake is listed for Cn1cc(-c2ccncc2)c(-c2ccc(OCc3cc([18F])c4ccccc4n3)cc2)n1 [[^18F]18a] ?
0.191

Which brain uptake is reported for this compound? Cn1cc(-c2ccncc2)c(-c2ccc(OCc3cc(OCC[18F])c4ccccc4n3)cc2)n1 [[^18F]18d]
0.078

Dear colleague, I am looking for the recorded brain uptake of the following compound: Cn1cc(-c2ccncc2)c(-c2ccc(OCc3cc(CCC[18F])c4ccccc4n3)cc2)n1 [[^18F]18c]
0.046

Field request: brain uptake | item: Cn1cc(-c2ccncc2)c(-c2ccc(OCc3cc(COCC[18F])c4ccccc4n3)cc2)n1 [[^18F]18e]
0.353

For the compound shown here, Cn1cc(-c2ccncc2)c(-c2ccc(OCc3cc(OCCOCCOCC[18F])c4ccccc4n3)cc2)n1 [[^18F]18g] , give the reported brain uptake.
0.509

* * *

- measurement.protocol: Biodistribution in rats
- Format: in vivo, male Sprague-Dawley rats
- condition.set: rat, iv, 5 min p.i., mean ± SD, n = 4
Give measured liver uptake for each item. Keep answers brief.
Entry rule: numbers only, all in %ID/g.

Sample Cn1cc(-c2ccncc2)c(-c2ccc(OCc3nc4ccccc4cc3OCC[18F])cc2)n1 [[^18F]20a] — what was its liver uptake?
4.24

Look up liver uptake for this compound: Cn1cc(-c2ccncc2)c(-c2ccc(OCc3cc(C[18F])c4ccccc4n3)cc2)n1 [[^18F]18b]
10.16

Entry Cn1cc(-c2ccncc2)c(-c2ccc(OCc3cc(CCC[18F])c4ccccc4n3)cc2)n1 [[^18F]18c] : reported liver uptake = ?
9.99

Which liver uptake is reported for this compound? Cn1cc(-c2ccncc2)c(-c2ccc(OCc3cc(COCC[18F])c4ccccc4n3)cc2)n1 [[^18F]18e]
3.99

* * *

Answer each item with its documented muscle uptake.
- measurement.protocol: Biodistribution in rats
- Format: in vivo, male Sprague-Dawley rats
- condition.set: rat, iv, 60 min p.i., mean ± SD, n = 4
Entry rule: numbers only, all in %ID/g.

Dear colleague, I am looking for the recorded muscle uptake of the following compound: Cn1cc(-c2ccncc2)c(-c2ccc(OCc3cc(OCC[18F])c4ccccc4n3)cc2)n1 [[^18F]18d]
0.132

Record request: muscle uptake value, item Cn1cc(-c2ccncc2)c(-c2ccc(OCc3cc([18F])c4ccccc4n3)cc2)n1 [[^18F]18a]
0.092

muscle uptake lookup needed for Cn1cc(-c2ccncc2)c(-c2ccc(OCc3cc(COCC[18F])c4ccccc4n3)cc2)n1 [[^18F]18e] , thanks.
0.228

May I ask what muscle uptake has been recorded for Cn1cc(-c2ccncc2)c(-c2ccc(OCc3cc(OCCOCCOCC[18F])c4ccccc4n3)cc2)n1 [[^18F]18g] ?
0.379

* * *

- measurement.protocol: Biodistribution in rats
- Format: in vivo, male Sprague-Dawley rats
- condition.set: rat, iv, 60 min p.i., mean ± SD, n = 4
attribute.measured: brain uptake (%ID/g)
Provide the reading as a plain figure in %ID/g.

Name the reported brain uptake value associated with the compound Cn1cc(-c2ccncc2)c(-c2ccc(OCc3cc(C[18F])c4ccccc4n3)cc2)n1 [[^18F]18b]
0.069

So what's the measured brain uptake for this one? Cn1cc(-c2ccncc2)c(-c2ccc(OCc3cc(CCC[18F])c4ccccc4n3)cc2)n1 [[^18F]18c]
0.026

Return reported brain uptake; argument: Cn1cc(-c2ccncc2)c(-c2ccc(OCc3cc([18F])c4ccccc4n3)cc2)n1 [[^18F]18a]
0.125

Sample Cn1cc(-c2ccncc2)c(-c2ccc(OCc3cc(COCC[18F])c4ccccc4n3)cc2)n1 [[^18F]18e] — what was its brain uptake?
0.343

Bench note: what brain uptake did Cn1cc(-c2ccncc2)c(-c2ccc(OCc3nc4ccccc4cc3OCC[18F])cc2)n1 [[^18F]20a] show?
0.149

// returns reported brain uptake for input Cn1cc(-c2ccncc2)c(-c2ccc(OCc3cc(OCCOCCOCC[18F])c4ccccc4n3)cc2)n1 [[^18F]18g]
0.421

Record request: brain uptake value, item Cn1cc(-c2ccncc2)c(-c2ccc(OCc3cc(OCC[18F])c4ccccc4n3)cc2)n1 [[^18F]18d]
0.101

* * *

- measurement.protocol: Biodistribution in rats
- Assay type: in vivo, male Sprague-Dawley rats
- condition.set: rat, iv, 30 min p.i., mean ± SD, n = 4
attribute.measured: bone uptake
Could you give the number and then its unit, please?

// lookup bone uptake for Cn1cc(-c2ccncc2)c(-c2ccc(OCc3cc(CCC[18F])c4ccccc4n3)cc2)n1 [[^18F]18c]
1.418 ± 0.182 %ID/g

Would you mind telling me what bone uptake value was observed for Cn1cc(-c2ccncc2)c(-c2ccc(OCc3cc(OCCOCCOCC[18F])c4ccccc4n3)cc2)n1 [[^18F]18g] ?
0.441 ± 0.049 %ID/g

For the molecule shown here, Cn1cc(-c2ccncc2)c(-c2ccc(OCc3cc(OCC[18F])c4ccccc4n3)cc2)n1 [[^18F]18d] , give the reported bone uptake.
0.091 ± 0.012 %ID/g

For the molecule shown here, Cn1cc(-c2ccncc2)c(-c2ccc(OCc3cc(COCC[18F])c4ccccc4n3)cc2)n1 [[^18F]18e] , give the reported bone uptake.
0.170 ± 0.030 %ID/g

Find the recorded bone uptake belonging to Cn1cc(-c2ccncc2)c(-c2ccc(OCc3cc([18F])c4ccccc4n3)cc2)n1 [[^18F]18a] and report it.
4.035 ± 0.153 %ID/g

Given the molecule Cn1cc(-c2ccncc2)c(-c2ccc(OCc3cc(C[18F])c4ccccc4n3)cc2)n1 [[^18F]18b] , what is its reported bone uptake?
4.055 ± 1.305 %ID/g

Look at this molecule and give its reported bone uptake. Cn1cc(-c2ccncc2)c(-c2ccc(OCc3nc4ccccc4cc3OCC[18F])cc2)n1 [[^18F]20a]
0.144 ± 0.006 %ID/g

* * *

- measurement.protocol: Biodistribution in rats
- Type: in vivo, male Sprague-Dawley rats
- condition.set: rat, iv, 60 min p.i., mean ± SD, n = 4
attribute.measured: liver uptake (%ID/g)
Quick note: give the figure in %ID/g, leave out the unit.

Name the reported liver uptake value associated with the compound Cn1cc(-c2ccncc2)c(-c2ccc(OCc3cc(COCC[18F])c4ccccc4n3)cc2)n1 [[^18F]18e]
0.554

Can you share its liver uptake? I mean this compound: Cn1cc(-c2ccncc2)c(-c2ccc(OCc3cc(CCC[18F])c4ccccc4n3)cc2)n1 [[^18F]18c]
6.79

Would you kindly share the measured liver uptake for Cn1cc(-c2ccncc2)c(-c2ccc(OCc3cc(C[18F])c4ccccc4n3)cc2)n1 [[^18F]18b] ?
3.10

* * *

- measurement.protocol: Biodistribution in rats
- Type: in vivo, male Sprague-Dawley rats
- condition.set: rat, iv, 60 min p.i., mean ± SD, n = 4
attribute.measured: blood uptake (%ID/g)
Please state the figure in %ID/g; there is no need to write the unit.

Look at this molecule and give its reported blood uptake. Cn1cc(-c2ccncc2)c(-c2ccc(OCc3cc(COCC[18F])c4ccccc4n3)cc2)n1 [[^18F]18e]
0.401

Form field: reported blood uptake of Cn1cc(-c2ccncc2)c(-c2ccc(OCc3cc([18F])c4ccccc4n3)cc2)n1 [[^18F]18a]
0.150

Look up blood uptake: Cn1cc(-c2ccncc2)c(-c2ccc(OCc3cc(C[18F])c4ccccc4n3)cc2)n1 [[^18F]18b]
0.201

Request the reported blood uptake associated with Cn1cc(-c2ccncc2)c(-c2ccc(OCc3nc4ccccc4cc3OCC[18F])cc2)n1 [[^18F]20a]
0.287

Give its blood uptake value. Item: Cn1cc(-c2ccncc2)c(-c2ccc(OCc3cc(OCC[18F])c4ccccc4n3)cc2)n1 [[^18F]18d]
0.215

Quick check: blood uptake of Cn1cc(-c2ccncc2)c(-c2ccc(OCc3cc(OCCOCCOCC[18F])c4ccccc4n3)cc2)n1 [[^18F]18g] ?
0.646

* * *

- measurement.protocol: Biodistribution in rats
- Format: in vivo, male Sprague-Dawley rats
- condition.set: rat, iv, 30 min p.i., mean ± SD, n = 4
attribute.measured: kidney uptake (%ID/g)
Express it in %ID/g; write the number only.

Quick one: kidney uptake of Cn1cc(-c2ccncc2)c(-c2ccc(OCc3cc(C[18F])c4ccccc4n3)cc2)n1 [[^18F]18b] ?
1.351

Would you kindly share the measured kidney uptake for Cn1cc(-c2ccncc2)c(-c2ccc(OCc3nc4ccccc4cc3OCC[18F])cc2)n1 [[^18F]20a] ?
1.022

Quick one: kidney uptake for Cn1cc(-c2ccncc2)c(-c2ccc(OCc3cc(COCC[18F])c4ccccc4n3)cc2)n1 [[^18F]18e] ?
0.632

The measured values listed here are drawn from paper PMC4697445.
